Test system: Aβ production
experiment_notes: Cellular Aβ IC50 determination (Aβ40 sandwich ELISA)
Type: cell-based
details: Cricetulus griseus; Aβ40, Chinese hamster ovary cells over-expressing human APP695 with London and Swedish mutations, 24 h incubation
Consider the following compounds; for each one, report its IC50.

Examples with their reported IC50 follow.
INSERT INTO results (compound, result) VALUES
  ('Cc1csc(C[C@H](C)C(=O)N[C@@H](CN(C)S(C)(=O)=O)C(=O)N[C@@H](CC(C)C)[C@@H](O)C[C@@H](C)C(=O)N[C@H](C(=O)NCC(C)C)C(C)C)n1', '6 to 100 µM'),
  ('Cc1csc(COC(=O)NC[C@H](NC(=O)[C@@H](C)Cc2nc(C)cs2)C(=O)N[C@@H](CC(C)C)[C@@H](O)C[C@@H](C)C(=O)N[C@H](C(=O)NCC(C)C)C(C)C)n1', '< 6 µM'),
  ('Cc1csc(C[C@H](C)C(=O)N[C@@H](CN)C(=O)N[C@@H](CC(C)C)[C@@H](O)C[C@@H](C)C(=O)N[C@H](C(=O)NCC(C)C)C(C)C)n1', '6 to 100 µM');

Please look at the items below and tell me IC50 for each one, in order.
1. CC[C@H](C[C@H](O)[C@H](CC(C)C)NC(=O)[C@H](CNC(=O)OC(C)(C)C)NC(=O)[C@@H](C)Cc1nc(C)cs1)C(=O)N[C@H](C(=O)NCC(C)C)C(C)C
2. Cc1csc(COC(=O)N[C@@H](CNS(C)(=O)=O)C(=O)N[C@@H](CC(C)C)[C@@H](O)C[C@@H](C)C(=O)N[C@H](C(=O)NCC(C)C)C(C)C)n1
3. COCCOC(=O)NC[C@H](NC(=O)[C@@H](C)Cc1nc(C)cs1)C(=O)N[C@@H](CC(C)C)[C@@H](O)C[C@@H](C)C(=O)N[C@H](C(=O)NCC(C)C)C(C)C

Result:
1. < 6 µM
2. > 100 µM
3. < 6 µM

----------
Test system: Aβ production
experiment_notes: Cellular Aβ IC50 determination (Aβ40 sandwich ELISA)
Assay type: cell-based
details: Cricetulus griseus; Aβ40, Chinese hamster ovary cells over-expressing human APP695 with London and Swedish mutations, 24 h incubation
Consider the following compounds; for each one, report its IC50.

INSERT INTO results (compound, result) VALUES
  ('Cc1csc(C[C@H](C)C(=O)N[C@@H](CNS(C)(=O)=O)C(=O)N[C@@H](CC(C)C)[C@@H](O)C[C@@H](C)C(=O)N[C@H](C(=O)NCC(C)C)C(C)C)n1', '< 6 µM'),
  ('Cc1csc(COC(=O)N[C@@H](CNC(=O)OC(C)(C)C)C(=O)N[C@@H](CC(C)C)[C@@H](O)C[C@@H](C)C(=O)N[C@H](C(=O)NCC(C)C)C(C)C)n1', '> 100 µM'),
  ('Cc1csc(C[C@H](C)C(=O)N[C@@H](CNC(=O)OC(C)(C)C)C(=O)N[C@@H](Cc2ccccc2)[C@@H](O)C[C@@H](C)C(=O)N[C@H](C(=O)NCC(C)C)C(C)C)n1', '6 to 100 µM'),
  ('CC(=O)NC[C@H](NC(=O)[C@@H](C)Cc1nc(C)cs1)C(=O)N[C@@H](CC(C)C)[C@@H](O)C[C@@H](C)C(=O)N[C@H](C(=O)NCC(C)C)C(C)C', '6 to 100 µM');

Task: Dear colleague, please send me the reported IC50 for Cc1csc(C[C@H](C)C(=O)N[C@@H](CNC(=O)O[C@H]2CCOC2)C(=O)N[C@@H](CC(C)C)[C@@H](O)C[C@@H](C)C(=O)N[C@H](C(=O)NCC(C)C)C(C)C)n1 when you can.
Result: < 6 µM

----------
System: Aβ production
experiment_notes: Cellular Aβ IC50 determination (Aβ40 sandwich ELISA)
Type: cell-based
details: Cricetulus griseus; Aβ40, Chinese hamster ovary cells over-expressing human APP695 with London and Swedish mutations, 24 h incubation
metric: IC50

INSERT INTO assay_data (compound, result) VALUES
  ('Cc1csc(C[C@H](C)C(=O)N[C@@H](CNC(=O)OC(C)(C)C)C(=O)N[C@@H](CC(C)C)[C@@H](O)C[C@@H](C)C(=O)N[C@H](C(=O)NCc2ccncc2)C(C)C)n1', '< 6 µM');

Please look at the items below and tell me IC50 for each one, in order.
1. Cc1csc(C[C@H](C)C(=O)N[C@@H](CNC(=O)OC(C)(C)C)C(=O)N[C@@H](CC(C)C)[C@@H](O)C[C@@H](C)C(=O)N[C@H](C(=O)NN(C)C)C(C)C)n1
2. CC[C@@H](Cc1nc(C)cs1)C(=O)N[C@@H](CNC(=O)OC(C)C)C(=O)N[C@@H](CC(C)C)[C@@H](O)C[C@@H](C)C(=O)N[C@H](C(=O)NCC(C)C)C(C)C
3. Cc1csc(C[C@H](C)C(=O)N[C@@H](CNC(=O)OC(C)(C)C)C(=O)N[C@@H](CC(C)C)[C@@H](O)C[C@@H](C)C(=O)N[C@H](C(=O)NCC(C)C)C(C)C)n1
4. Cc1csc(C[C@H](C)C(=O)N[C@@H](CNC(=O)OC(C)(C)C)C(=O)N[C@@H](Cc2cc(F)cc(F)c2)[C@@H](O)C[C@@H](C)C(=O)N[C@H](C(=O)NCC(C)C)C(C)C)n1

Result:
1: < 6 µM; 2: < 6 µM; 3: < 6 µM; 4: 6 to 100 µM

----------
target_under_test: memapsin 2 (Homo sapiens, UniProt P56817)
Sequence (P56817 46-501): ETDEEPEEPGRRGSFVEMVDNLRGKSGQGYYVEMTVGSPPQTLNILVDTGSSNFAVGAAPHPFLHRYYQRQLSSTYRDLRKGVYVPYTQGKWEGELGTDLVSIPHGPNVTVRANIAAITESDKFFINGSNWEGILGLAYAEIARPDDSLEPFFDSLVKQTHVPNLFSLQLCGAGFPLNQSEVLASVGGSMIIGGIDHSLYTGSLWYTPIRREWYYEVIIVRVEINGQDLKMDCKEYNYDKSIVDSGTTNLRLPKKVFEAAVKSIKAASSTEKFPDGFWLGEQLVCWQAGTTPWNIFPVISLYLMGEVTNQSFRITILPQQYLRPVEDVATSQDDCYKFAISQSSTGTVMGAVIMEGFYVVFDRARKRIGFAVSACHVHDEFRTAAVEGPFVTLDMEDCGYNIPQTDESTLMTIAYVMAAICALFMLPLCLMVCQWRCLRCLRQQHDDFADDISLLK
pKi: −log10 of the molar value.
metric: pKi

Examples with their reported pKi follow.
INSERT INTO results (compound, metric, result) VALUES
  ('Cc1cc(C)n(CC(N=[N+]=[N-])C(=O)N[C@@H](CNC(=O)OC(C)(C)C)C(=O)N[C@@H](CC(C)C)[C@@H](O)C[C@@H](C)C(=O)N[C@H](C(=O)NCC(C)C)C(C)C)n1 (some centres unmarked)', 'pKi', '6.22 to 7.00'),
  ('Cc1csc(COC(=O)N[C@@H](CNS(C)(=O)=O)C(=O)N[C@@H](CC(C)C)[C@@H](O)C[C@@H](C)C(=O)N[C@H](C(=O)NCC(C)C)C(C)C)n1', 'pKi', '> 7.00'),
  ('Cc1nc(C[C@H](C)C(=O)N[C@@H](CNC(=O)OC(C)(C)C)C(=O)N[C@@H](CC(C)C)[C@@H](O)C[C@@H](C)C(=O)N[C@H](C(=O)NCC(C)C)C(C)C)c(C)o1', 'pKi', '> 7.00'),
  ('CC[C@@H](Cn1nc(C)cc1C)C(=O)N[C@@H](CNC(=O)OC(C)(C)C)C(=O)N[C@@H](CC(C)C)[C@@H](O)C[C@@H](C)C(=O)N[C@H](C(=O)NCc1ccncc1)C(C)C', 'pKi', '> 7.00'),
  ('Cc1cc(C)n(CCC(=O)N[C@@H](CC(N)=O)C(=O)N[C@@H](CC(C)C)[C@@H](O)C[C@@H](C)C(=O)NC2(C(=O)NCC(C)C)CCCC2)n1', 'pKi', '< 6.22'),
  ('Cc1nc(COC(=O)N[C@@H](CC(=O)O)C(=O)N[C@@H](CC(C)C)[C@@H](O)C[C@@H](C)C(=O)N[C@H](C(=O)NCC(C)C)C(C)C)c(C)o1', 'pKi', '6.22 to 7.00'),
  ('Cc1csc(COC(=O)N[C@@H](CC(N)=O)C(=O)N[C@@H](CC(C)C)[C@@H](O)C[C@@H](C)C(=O)N[C@H](C(=O)NCC(C)C)C(C)C)n1', 'pKi', '6.22 to 7.00'),
  ('CC[C@H](Cc1nc(C)cs1)C(=O)N[C@@H](CNC(=O)OC(C)(C)C)C(=O)N[C@@H](CC(C)C)[C@@H](O)C[C@@H](C)C(=O)N[C@H](C(=O)NCC(C)C)C(C)C', 'pKi', '< 6.22'),
  ('Cc1cc(C)n(CCC(=O)N[C@@H](CC(N)=O)C(=O)N[C@@H](CC(C)C)[C@@H](O)C[C@@H](C)C(=O)NC(CO)C(=O)NCC(C)C)n1 (some centres unmarked)', 'pKi', '< 6.22'),
  ('Cc1csc(C[C@H](C)C(=O)N[C@@H](CN(C)S(C)(=O)=O)C(=O)N[C@@H](CC(C)C)[C@@H](O)C[C@@H](C)C(=O)N[C@H](C(=O)NCC(C)C)C(C)C)n1', 'pKi', '6.22 to 7.00');

Note: attention shifts to another entry.
Task: Dear colleague, please send me the reported pKi for CC[C@@H](Cn1nc(C)cc1C)C(=O)N[C@@H](CNC(=O)OC(C)(C)C)C(=O)N[C@@H](CC(C)C)[C@@H](O)C[C@@H](C)C(=O)N[C@H](C(=O)NCC(F)(F)F)C(C)C when you can.
Result: > 7.00
